Cited source for all entries: the supplement of paper PMC10567573

B1: RIPK4 (parent)
chain: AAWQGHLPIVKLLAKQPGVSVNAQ

# Variants of: B1
# ASSAY PROCEDURE: protein stability index of a GFP-peptide fusion (GPS, HEK-293T) (PSI 1-6); higher = more stable;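 note: lentivirally expressed fusions sorted by FACS into six bins by GFP to DsRed ratio, PSI derived from sequencing read proportions per bin multiplied by bin number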
# MEASUREMENT PARAMETERS: c terminus: a fixed tail appended
Below, each of the variants is paired with its reported protein stability index value.
The answer should be a number; do not append a unit.

Some variants with known protein stability index results, for comparison:
- AAWQGHLPIVKLRAKQPGVSVNAQ [L13R]: 3.09
- AAWQGHLPIVKLLAAQPGVSVNAQ [K15A]: 2.56
- AAGQGHLPIVKLLAKQPGVSVNAQ [W3G]: 2.91
- AAWQGHLPIVKLLKKQPGVSVNAQ [A14K]: 3.17

Give the measured protein stability index of AAWRGHLPIVKLLAKQPGVSVNAQ [Q4R] .
1.89

Give the measured protein stability index of AAWQGHLPIVKLLAKQPGVSRNAQ [V21R] .
2.75

Give the measured protein stability index of AAWQGHLPIVKLLALQPGVSVNAQ [K15L] .
1.82
